The origin of these recorded values is the supplement of paper PMC10126150.

# Tested on: ATP;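 also: ATP exposure 15 min at 22 °C before imaging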
# test.description: switch fluorescence ratio, 500 uM ATP over buffer (Cy3 cluster intensity, sum of 5 cycles each) (fold (ratio)); higher = stronger signal-on switching upon ATP binding; sequences stand for … in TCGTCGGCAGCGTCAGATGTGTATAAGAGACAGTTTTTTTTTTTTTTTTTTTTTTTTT…TC
# measurement.parameters: aptamer strand: ATP DNA aptamer (quencher-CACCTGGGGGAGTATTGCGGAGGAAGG + anchor), 100 nM annealed; ATP concentration: 500 uM
metric.name: switch fluorescence ratio

| polymer.sequence | metric.name | observed.value |
| --- | --- | --- |
| CATATAGGGC | switch fluorescence ratio | 0.985 |
| TTTGTTGAAA | switch fluorescence ratio | 1.02 |
| GCTCAGGCTG | switch fluorescence ratio | 1.02 |
| GTTTTGCGAA | switch fluorescence ratio | 0.996 |
| GGATTGTTGG | switch fluorescence ratio | 1.01 |
| GCGGACCGGT | switch fluorescence ratio | 0.968 |
| GGTGGCCGGT | switch fluorescence ratio | 0.987 |
| CCAGGTCATA | switch fluorescence ratio | 1.07 |
| TTTACCTGGG | switch fluorescence ratio | 1.01 |
| TAGATCGCTG | switch fluorescence ratio | 0.931 |
| AGTTTTCCAT | switch fluorescence ratio | 1 |
| TTACCTTTTT | switch fluorescence ratio | 1.02 |
| GGGGTAAAGC | switch fluorescence ratio | 1 |
| ATTTTCAGAT | switch fluorescence ratio | 1 |
| CCTTCTCGTC | switch fluorescence ratio | 1.34 |
| GGGGGAGGCG | switch fluorescence ratio | 1.03 |
| CCTGGGACCA | switch fluorescence ratio | 0.975 |
| TTTGAAGTTG | switch fluorescence ratio | 0.992 |
| CGGCATGGGT | switch fluorescence ratio | 0.989 |
| ATGGGACGGT | switch fluorescence ratio | 1.03 |
| CCATACAGTT | switch fluorescence ratio | 1.01 |
| TATATGCCGT | switch fluorescence ratio | 1.02 |
| TTGTTAGATC | switch fluorescence ratio | 0.984 |
| AACTTCAGGC | switch fluorescence ratio | 1.05 |
| TTTCTGTCGG | switch fluorescence ratio | 1.02 |
| TTTTCAGGAA | switch fluorescence ratio | 1.02 |
| TTTATTTGG | switch fluorescence ratio | 1.09 |
| ATATTTTTTG | switch fluorescence ratio | 0.978 |
| GAAGGGGCCC | switch fluorescence ratio | 1.02 |
| CAAAAAGCGT | switch fluorescence ratio | 0.979 |
| TTTTATCTTT | switch fluorescence ratio | 1 |
| AGGGGTGCCA | switch fluorescence ratio | 0.953 |
| ATAATTAAGG | switch fluorescence ratio | 0.99 |
| CGTAATTGCC | switch fluorescence ratio | 1 |
| GGGACACGGC | switch fluorescence ratio | 0.996 |
| TGGATGGGGG | switch fluorescence ratio | 0.992 |
| AGGTACGGGG | switch fluorescence ratio | 0.971 |
| TCCATTCCGA | switch fluorescence ratio | 1.17 |
| TAGGGGAGGG | switch fluorescence ratio | 1.03 |
| CCGGTGTGCC | switch fluorescence ratio | 1.01 |
| CCTGGGAGTG | switch fluorescence ratio | 0.999 |
| TGGGGGGCCG | switch fluorescence ratio | 1.06 |
| GCGGTATGCT | switch fluorescence ratio | 0.952 |
| CGGGTAAAGG | switch fluorescence ratio | 0.944 |
| AATCGATCGG | switch fluorescence ratio | 1.01 |
| TTCCATTTTT | switch fluorescence ratio | 0.984 |
| TTGATATATA | switch fluorescence ratio | 0.974 |
| AGGTTTGATC | switch fluorescence ratio | 1.01 |
| TAGTGGTTT | switch fluorescence ratio | 0.986 |
| AAATCTCGT | switch fluorescence ratio | 0.995 |
| TTTGGACGGC | switch fluorescence ratio | 1.04 |
| GTTTTCGGCC | switch fluorescence ratio | 0.996 |
| TAGGTTACGG | switch fluorescence ratio | 0.984 |
| TTGGGGGCCT | switch fluorescence ratio | 1.04 |
| AGCTGTTTCA | switch fluorescence ratio | 0.973 |
| GTTTTTCGGT | switch fluorescence ratio | 0.981 |
| CTTCATTACT | switch fluorescence ratio | 1.08 |
| AAATGTCTAG | switch fluorescence ratio | 1.01 |
| GCGGGGGAGG | switch fluorescence ratio | 0.993 |
| TTGAAGGTGC | switch fluorescence ratio | 1.69 |
| TCTTTCAGTT | switch fluorescence ratio | 0.982 |
| CTAGCGGTCG | switch fluorescence ratio | 0.997 |
| GTCGAGAAGG | switch fluorescence ratio | 0.991 |
| TTGACGTGTG | switch fluorescence ratio | 0.961 |
| TTCTTTTCTT | switch fluorescence ratio | 1.02 |
| TTTCCGGCGT | switch fluorescence ratio | 1.03 |
| AGCCATGATG | switch fluorescence ratio | 0.979 |
| ACTTTTTGGG | switch fluorescence ratio | 1.01 |
| TATTGGGGTT | switch fluorescence ratio | 0.996 |
| CTCTAACAGC | switch fluorescence ratio | 1.08 |
| TTGGGGGGAA | switch fluorescence ratio | 1.01 |
| AACCTGGTCG | switch fluorescence ratio | 1.07 |
| AGTTTGTCAT | switch fluorescence ratio | 0.967 |
| CCGTAACGGG | switch fluorescence ratio | 1.09 |
| TGTAAAATTT | switch fluorescence ratio | 0.988 |
| GGGCCTGTGA | switch fluorescence ratio | 1 |
| ACGTCGGTAC | switch fluorescence ratio | 3 |
| GGGATTACGG | switch fluorescence ratio | 0.99 |
| CAGGCGGGTG | switch fluorescence ratio | 1.06 |
| TTTTAGATTT | switch fluorescence ratio | 0.995 |
| ACGGTTGAGC | switch fluorescence ratio | 1 |
| CGAGTTGTTG | switch fluorescence ratio | 1.01 |
| GGATCTTTGA | switch fluorescence ratio | 0.989 |
| ACCACAATGT | switch fluorescence ratio | 1.08 |
| GGTTGTGGCA | switch fluorescence ratio | 1.03 |
| ATTAGGGTTG | switch fluorescence ratio | 0.982 |
